- Tested on: PfAP2-LT AP2 domain (GST-tagged)
- experiment-notes: gcPBM binding intensity (ln(normalized median fluorescence intensity)); higher = stronger DNA binding
Over roughly 25,000 sequences, “ln(normalized median fluorescence intensity)” has its median near 8.9; the highest 2% begin near 10. The sample as a whole holds a higher share of the highest values than the screen did.

residue-codes	gcPBM binding intensity (ln)
AAAAAAAAAAAAAAAAAAAAAAAAACAATGAATTTA [GTGCAC_negctrl_site698]	8.82
GCTTATTAATATCATACACACATAGATATATTTATA [CACACA_site3104]	8.91
TACATACACAGACACACACACATATATATATATATA [CACACA_site3557]	10.1
AAAAAAAACAGACACACACACAAATACATACACAAA [CACACA_site705]	9.72
ATGTTCTTTAAAACCACACACCCCCCAACCCCCCTC [CACACA_site2373]	10.1
TATATATTAAAATAATCACACACATCAATTAATGGT [CACACA_site8331]	9.09
ATATTTTCCCTTTATAGGAGCACAAAAATTAAATGT [CACACA_negctrl_site1114]	8.46
AAGAAAAAAAAAAAAACACACATATATATATATATA [CACACA_site2027]	10.1
TACAGACATACATACACACATACATATATATATATA [CACACA_site1940]	9.82
ATAAATCAAAGGCACACACACAAAAAAAAAAAAAAA [CACACA_site160]	9.62
ATATGCTATTTACTAGTGCAAAATATTTAAAATATG [GTGCAC_site9517]	8.61
TGAACACAGACAAATACACACAAAAAAAATAAATAA [CACACA_site4298]	9.28
AATGAAGACTTTTTTACACACTTCATATATTATATA [CACACA_site2034]	8.9
TTTTATAGAGTGTATACATGCAATACCACATAAAAT [TGCATGCA_site476]	8.79
AGTGAATATTACGAAACACACAAAAAAATACATTTC [CACACA_site511]	9.09
ATAATTGTTTCTTTCTCCTTTTTATTTCATTTTAAA [CACACA_negctrl_site964]	8.68
AAGGAATAATATAAAACACACACATAAATATAAATA [CACACA_site9115]	9.6
AATACATACAGACACACACACACATATAAATAAATA [CACACA_site7642]	10.1
GTAAGAAACAGACACACACACATATATATATATATA [CACACA_site794]	10.2
AGGATATGCAGACACACACACATATATATATATATA [CACACA_site2201]	10.3
CGGACATACTAACGGACACACGTAAGAAAAAAAAAG [CACACA_site4504]	9.05
AAAAAAAAGAAAAACACACACATATATATATATAAT [CACACA_site4707]	9.53
TAAATACAGACATACACACATACACCCACATATATA [CACACA_site547]	9.76
AAAGTATTCTTTACACGTACATATATATAAATATAA [XGTACX_site7557]	8.59
CAAGAAAAGAAACACACACACATATATATATATATA [CACACA_site3881]	10.4
TACGGACATACTAACGGACACACGTAAGAAAAAAAA [CACACA_site602]	9.03
AGGACACATATATGCAAAAAAAAAAAAAAAAAAAAA [TGCATGCA_negctrl_site427]	8.41
